experiment: yeast display, Sf9 membrane polyspecificity reagent, FACS + sequencing; frameworks hold sequencing errors
Endpoint Name: polyreactivity (PSR sort gate)

Solved entries (count: 6):
item_sequence=QVQLVESGGGLVQAGGSLRLSCAASGRIFRGNTMGWYRQAPGKERELVAAITRGGSTSYADSVKGRFTISRDNAKNTVYLQMNSLKPEDTAVYYCATRTHGEGTRRDSWGQGTQVTVSS recorded_value="low polyreactivity"
item_sequence=QVQLVESGGGLVQAGGSLRLSCAASGSIFVTYAMGWYRQAPGKERDLVATITNVGRTNYADSVKGRFTISRDNAKNTVYLQMNSLKPEDTAVYYCNADGAPGYPGAYDYWGQGTQVTVSS recorded_value="low polyreactivity"
item_sequence=PVQLVESGGGLVQAGGSLRLSCADSGNIFTYNAMGWSRPEPGTERELVAGITSAGGTYYADSVKGRFTISRDNAKNSVYLQMNSLKPEDTAVYYWNVDYDNDTVRGDKIGYSYEYWGHGTQVTVSS recorded_value="low polyreactivity"
item_sequence=QVQLVESGGGLVQAGGSLRLSCAASGRNFGVYAMGWYRQAPGKERELVARIRGSGASTYYADSVKGRFTISRDNAKNTVYLQMNSLKPEDTAVYYCAAVTVAGYDYWGQGTQVTVSS recorded_value="high polyreactivity"
item_sequence=QVQLVDSGGGLVQAGGSLRLSCAASGFIFLTYGMGWYRQAPGKERELVATITSVGSTNYADSVKGRFTISRDNAKNTVYLQMNSLKPEDTAVYYCAAVSTYHVEFDFWAEYGYWGQGTQVTVSS recorded_value="low polyreactivity"
item_sequence=QVQLVESGGGLVQAGGSLRLSCAASGLTFRYYGMGWYRQAPGKERELVAAITSSGGSTRYADSVKGRFTISRDNAKNTVYLQMNSLKPEDTAVYYCAASTWYGYDYWGQGTQVTVSS recorded_value="high polyreactivity"

q: Entry under review: "QVQLVESGGGLVQAGGSLRLSCAASGSIFVNNAMGWYRQAPGKERELVAAIRRGSSTNYADSVKGRFTISRDNAKNTVYLQMNSLKPEDTAVYYCAADHVDDEAQNYDYWGQGTQVTVSS" . Reported polyreactivity (PSR sort gate)?
a: low polyreactivity

q: Now consider "QVQLVESGGGLVQAGGSLRLSCAASGSTFTIYVIGWYRTAPGKERELVAAINGGGRTNYADSVKGRFTISRDNAKNTVYLQMNSLKPEDTAVYYCAADGLSNVRQMDYWGQGTQVTVSS" .
a: low polyreactivity

q: Now this one: "QVQLVESGGGLVQAGGSLRLSCAASGRIFGHNSMGWSRQPPWKEMELVATISSGVRTNYADSVKGRFTISRDNAKNTVYLQMNSLKPEDTAVYYCATKTYQFGYSSYYYWGQGTQVTVSS"
a: high polyreactivity

q: Same read-out for "QVQLVESGGGLVQAGGSLRLSCAASGRIFQKYAMGWYRQAPGKERELVAAISSGDSTYADSVKGRFTISRDNAKNTVYLQMNSLKPEDTAVYYCNREVPESQGFITPDGYCGQGTQVTVSS" ?
a: low polyreactivity

q: Continue with "QVQLVESGGGLVQAGGSLRLRCAASGGIFGYYAMGLYRQAPGKERDFVAAITLSGGRTYYADSVKGRFTISRDNAKNTVYLQMNSLKPEDTAVYYCAAKGTRRGKERNYWGQGTQVTLSS"
a: high polyreactivity
